// each record: one item and its IC50 for Acetylcholinesterase (Electrophorus electricus, UniProt O42275)

Data request: Given CC(C)(C)c1cc(/C=C/C(=O)NCCC2CCN(Cc3ccccc3Cl)CC2)cc(C(C)(C)C)c1O , state its recorded IC50.
Data returned: 590 nM

Data request: Given CC(C)(C)c1cc(/C=C/C(=O)NCCC2CCN(Cc3cccc(F)c3)CC2)cc(C(C)(C)C)c1O , state its recorded IC50.
Data returned: 680 nM

Data request: Given CC(C)(C)c1cc(C(=O)CNCCC2CCN(Cc3ccccc3)CC2)cc(C(C)(C)C)c1O , state its recorded IC50.
Data returned: 2440 nM

Data request: Given CC(C)(C)c1cc(/C=C/C(=O)NCCC2CCN(Cc3ccc(F)cc3F)CC2)cc(C(C)(C)C)c1O , state its recorded IC50.
Data returned: 560 nM

Data request: Given COc1ccc(CN2CCC(CCNC(=O)/C=C/c3cc(C(C)(C)C)c(O)c(C(C)(C)C)c3)CC2)cc1 , state its recorded IC50.
Data returned: 850 nM

Data request: Given CC(C)(C)c1cc(/C=C/C(=O)NCCC2CCN(Cc3ccc(C#N)cc3)CC2)cc(C(C)(C)C)c1O , state its recorded IC50.
Data returned: 770 nM

Data request: Given O=C(/C=C/c1ccc(O)cc1)NCCC1CCN(Cc2ccccc2)CC1 , state its recorded IC50.
Data returned: 810 nM

Data request: Given CC(C)(C)c1cc(/C=C/C(=O)NCCC2CCN(Cc3ccccc3F)CC2)cc(C(C)(C)C)c1O , state its recorded IC50.
Data returned: 75 nM

Data request: Given CC(C)(C)c1cc(/C=C/C(=O)NCCC2CCN(Cc3ccc(Br)cc3)CC2)cc(C(C)(C)C)c1O , state its recorded IC50.
Data returned: 1320 nM

Data request: Given CC(C)(C)c1cc(/C=C/C(=O)NCCC2CCN(Cc3ccc(F)cc3)CC2)cc(C(C)(C)C)c1O , state its recorded IC50.
Data returned: 320 nM

Data request: Given CC(C)(C)c1cc(/C=C/C(=O)NCCC2CCN(Cc3cccc(Cl)c3)CC2)cc(C(C)(C)C)c1O , state its recorded IC50.
Data returned: 740 nM

Data request: Given Cc1ccc(CN2CCC(CCNC(=O)/C=C/c3cc(C(C)(C)C)c(O)c(C(C)(C)C)c3)CC2)cc1 , state its recorded IC50.
Data returned: 720 nM

Data request: Given CC(C)(C)c1cc(/C=C/C(=O)NCCC2CCN(Cc3ccc(F)c(F)c3)CC2)cc(C(C)(C)C)c1O , state its recorded IC50.
Data returned: 420 nM

Data request: Given O=C(/C=C/c1ccccc1)NCCC1CCN(Cc2ccccc2)CC1 , state its recorded IC50.
Data returned: 550 nM

Data request: Given CC(C)(C)c1cc(C(=O)CNCC2CCN(Cc3ccccc3)CC2)cc(C(C)(C)C)c1O , state its recorded IC50.
Data returned: 6430 nM

Data request: Given CC(C)(C)c1cc(/C=C/C(=O)NCCC2CCN(Cc3cccc([N+](=O)[O-])c3)CC2)cc(C(C)(C)C)c1O , state its recorded IC50.
Data returned: 1210 nM

Data request: Given CC(C)(C)c1cc(CCC(=O)NCCC2CCN(Cc3ccccc3)CC2)cc(C(C)(C)C)c1O , state its recorded IC50.
Data returned: 2310 nM

Data request: Given Cc1ccccc1CN1CCC(CCNC(=O)/C=C/c2cc(C(C)(C)C)c(O)c(C(C)(C)C)c2)CC1 , state its recorded IC50.
Data returned: 870 nM

Data request: Given CC(C)(C)c1cc(C(=O)NC2CCN(Cc3ccccc3)CC2)cc(C(C)(C)C)c1O , state its recorded IC50.
Data returned: 55600 nM

Data request: Given CC(C)(C)c1cc(/C=C/C(=O)NCCC2CCN(Cc3ccccc3)CC2)cc(C(C)(C)C)c1O , state its recorded IC50.
Data returned: 530 nM

###

# METHOD: Half life in Sprague-Dawley rat liver microsomes in presence of NADPH by UPLC/MS analysis
# RUN_CONDITIONS: liver microsomes
MEASURED_PARAMETER: half-life (h)
Number only, in h; omit the unit.

Data request: Given CC(C)(C)c1cc(/C=C/C(=O)NCCC2CCN(Cc3ccccc3F)CC2)cc(C(C)(C)C)c1O , state its recorded half-life.
Data returned: 1.49

###

# TESTED_ON: Cholinesterase (Homo sapiens)
# Sequence (P06276 whole entry): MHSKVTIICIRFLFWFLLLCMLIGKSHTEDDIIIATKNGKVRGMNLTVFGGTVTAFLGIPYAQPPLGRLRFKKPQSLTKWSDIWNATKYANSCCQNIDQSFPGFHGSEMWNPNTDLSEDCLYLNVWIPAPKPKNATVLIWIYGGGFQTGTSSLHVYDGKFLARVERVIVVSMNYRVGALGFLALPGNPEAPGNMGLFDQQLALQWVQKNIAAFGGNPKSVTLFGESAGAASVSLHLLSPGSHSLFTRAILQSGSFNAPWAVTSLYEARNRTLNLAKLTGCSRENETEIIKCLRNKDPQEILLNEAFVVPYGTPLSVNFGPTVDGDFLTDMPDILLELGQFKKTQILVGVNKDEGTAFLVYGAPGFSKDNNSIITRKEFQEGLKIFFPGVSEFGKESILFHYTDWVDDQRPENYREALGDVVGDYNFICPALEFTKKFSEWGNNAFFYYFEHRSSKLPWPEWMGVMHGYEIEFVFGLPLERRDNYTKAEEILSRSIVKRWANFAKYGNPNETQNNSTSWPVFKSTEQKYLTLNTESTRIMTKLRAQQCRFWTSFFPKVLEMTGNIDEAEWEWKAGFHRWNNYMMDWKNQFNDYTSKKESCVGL
# METHOD: Inhibition of human serum BuChE using butyrylthiocholine iodide as substrate incubated for 5 mins followed by substrate addition measured after 180 secs by Ellman's method
# RUN_CONDITIONS: read-out: IC50
MEASURED_PARAMETER: IC50
Field note: include the unit after the figure.

Data request: Given CC(C)(C)c1cc(C(=O)CNCC2CCN(Cc3ccccc3)CC2)cc(C(C)(C)C)c1O , state its recorded IC50.
Data returned: 9.61 µM

Data request: Given O=C(/C=C/c1ccc(O)cc1)NCCC1CCN(Cc2ccccc2)CC1 , state its recorded IC50.
Data returned: 1.22 µM

Data request: Given O=C(/C=C/c1ccccc1)NCCC1CCN(Cc2ccccc2)CC1 , state its recorded IC50.
Data returned: 1.67 µM

Data request: Given CC(C)(C)c1cc(C(=O)CNCCC2CCN(Cc3ccccc3)CC2)cc(C(C)(C)C)c1O , state its recorded IC50.
Data returned: 19.6 µM

Data request: Given CC(C)(C)c1cc(/C=C/C(=O)NCCC2CCN(Cc3ccccc3)CC2)cc(C(C)(C)C)c1O , state its recorded IC50.
Data returned: 84.8 µM

###

# METHOD: Antioxidant activity assessed as trolox equivalent of AAPH-induced radical scavenging activity preincubated for 15 mins followed by AAPH addition measured every minute for 120 mins by ORAC-FL based fluorescein assay
# Type: functional
MEASURED_PARAMETER: Activity (mmolequiv/mmol)
The reply should be a number, written without any unit.

Data request: Given Cc1cc(C(C)(C)C)c(O)c(C(C)(C)C)c1 [BUTYLATED HYDROXYTOLUENE] , state its recorded Activity (mmolequiv/mmol).
Data returned: 1.57

Data request: Given CC(C)(C)c1cc(C(=O)CNC2CCN(Cc3ccccc3)CC2)cc(C(C)(C)C)c1O , state its recorded Activity (mmolequiv/mmol).
Data returned: 0.35

Data request: Given CC(C)(C)c1cc(/C=C/C(=O)NCCC2CCN(Cc3cccc(F)c3)CC2)cc(C(C)(C)C)c1O , state its recorded Activity (mmolequiv/mmol).
Data returned: 1.59

Data request: Given CC(C)(C)c1cc(CCC(=O)NCCC2CCN(Cc3ccccc3)CC2)cc(C(C)(C)C)c1O , state its recorded Activity (mmolequiv/mmol).
Data returned: 1.33

Data request: Given CC(C)(C)c1cc(/C=C/C(=O)NCCC2CCN(Cc3ccccc3Cl)CC2)cc(C(C)(C)C)c1O , state its recorded Activity (mmolequiv/mmol).
Data returned: 1.6

Data request: Given CC(C)(C)c1cc(/C=C/C(=O)NCCC2CCN(Cc3ccc(F)cc3F)CC2)cc(C(C)(C)C)c1O , state its recorded Activity (mmolequiv/mmol).
Data returned: 1.54

Data request: Given CC(C)(C)c1cc(/C=C/C(=O)NCCC2CCN(Cc3ccc(F)c(F)c3)CC2)cc(C(C)(C)C)c1O , state its recorded Activity (mmolequiv/mmol).
Data returned: 1.57

Data request: Given CC(C)(C)c1cc(C(=O)CNCCC2CCN(Cc3ccccc3)CC2)cc(C(C)(C)C)c1O , state its recorded Activity (mmolequiv/mmol).
Data returned: 0.31

Data request: Given CC(C)(C)c1cc(/C=C/C(=O)NCC2CCN(Cc3ccccc3)CC2)cc(C(C)(C)C)c1O , state its recorded Activity (mmolequiv/mmol).
Data returned: 1.31

Data request: Given CC(C)(C)c1cc(C(=O)NCCC2CCN(Cc3ccccc3)CC2)cc(C(C)(C)C)c1O , state its recorded Activity (mmolequiv/mmol).
Data returned: 1.6

Data request: Given CC(C)(C)c1cc(/C=C/C(=O)NCCC2CCN(Cc3ccc(C#N)cc3)CC2)cc(C(C)(C)C)c1O , state its recorded Activity (mmolequiv/mmol).
Data returned: 1.62

###

# TESTED_ON: Cholinesterase (Equus caballus)
# METHOD: Inhibition of equine serum BuChE at 100 uM using butyrylthiocholine iodide as substrate incubated for 5 mins followed by substrate addition measured after 180 secs by Ellman's method relative to control
MEASURED_PARAMETER: inhibition (%)
Number only, in %; omit the unit.

Data request: Given CC(C)(C)c1cc(/C=C/C(=O)NCCC2CCN(Cc3ccc(C#N)cc3)CC2)cc(C(C)(C)C)c1O , state its recorded inhibition.
Data returned: 48.1

Data request: Given CC(C)(C)c1cc(/C=C/C(=O)NCCC2CCN(Cc3ccc(Br)cc3)CC2)cc(C(C)(C)C)c1O , state its recorded inhibition.
Data returned: 38.9

Data request: Given CC(C)(C)c1cc(/C=C/C(=O)NCCC2CCN(Cc3ccc(F)c(F)c3)CC2)cc(C(C)(C)C)c1O , state its recorded inhibition.
Data returned: 39.9

Data request: Given CC(C)(C)c1cc(/C=C/C(=O)NC2CCN(Cc3ccccc3)CC2)cc(C(C)(C)C)c1O , state its recorded inhibition.
Data returned: 31.5

Data request: Given CC(C)(C)c1cc(/C=C/C(=O)NCCC2CCN(Cc3cccc(F)c3)CC2)cc(C(C)(C)C)c1O , state its recorded inhibition.
Data returned: 37.9

Data request: Given CC(C)(C)c1cc(/C=C/C(=O)NCCC2CCN(Cc3cccc(Cl)c3)CC2)cc(C(C)(C)C)c1O , state its recorded inhibition.
Data returned: 41.5

Data request: Given CC(C)(C)c1cc(/C=C/C(=O)NCCC2CCN(Cc3ccc(F)cc3F)CC2)cc(C(C)(C)C)c1O , state its recorded inhibition.
Data returned: 31.2

Data request: Given CC(C)(C)c1cc(CCC(=O)NCCC2CCN(Cc3ccccc3)CC2)cc(C(C)(C)C)c1O , state its recorded inhibition.
Data returned: 42.4

Data request: Given Cc1ccccc1CN1CCC(CCNC(=O)/C=C/c2cc(C(C)(C)C)c(O)c(C(C)(C)C)c2)CC1 , state its recorded inhibition.
Data returned: 55.9

Data request: Given CC(C)(C)c1cc(/C=C/C(=O)NCCC2CCN(Cc3ccccc3Cl)CC2)cc(C(C)(C)C)c1O , state its recorded inhibition.
Data returned: 35.5

Data request: Given CC(C)(C)c1cc(C(=O)NC2CCN(Cc3ccccc3)CC2)cc(C(C)(C)C)c1O , state its recorded inhibition.
Data returned: 34.6

Data request: Given CC(C)(C)c1cc(/C=C/C(=O)NCCC2CCN(Cc3ccccc3)CC2)cc(C(C)(C)C)c1O , state its recorded inhibition.
Data returned: 48

Data request: Given COc1ccc(CN2CCC(CCNC(=O)/C=C/c3cc(C(C)(C)C)c(O)c(C(C)(C)C)c3)CC2)cc1 , state its recorded inhibition.
Data returned: 43.6

Data request: Given CC(C)(C)c1cc(/C=C/C(=O)NCCC2CCN(Cc3ccccc3F)CC2)cc(C(C)(C)C)c1O , state its recorded inhibition.
Data returned: 48

Data request: Given Cc1ccc(CN2CCC(CCNC(=O)/C=C/c3cc(C(C)(C)C)c(O)c(C(C)(C)C)c3)CC2)cc1 , state its recorded inhibition.
Data returned: 41.4

Data request: Given CC(C)(C)c1cc(C(=O)NCC2CCN(Cc3ccccc3)CC2)cc(C(C)(C)C)c1O , state its recorded inhibition.
Data returned: 8.61

Data request: Given CC(C)(C)c1cc(/C=C/C(=O)NCC2CCN(Cc3ccccc3)CC2)cc(C(C)(C)C)c1O , state its recorded inhibition.
Data returned: 16.6

Data request: Given CC(C)(C)c1cc(C(=O)CNC2CCN(Cc3ccccc3)CC2)cc(C(C)(C)C)c1O , state its recorded inhibition.
Data returned: 27.2

Data request: Given CC(C)(C)c1cc(CCC(=O)NC2CCN(Cc3ccccc3)CC2)cc(C(C)(C)C)c1O , state its recorded inhibition.
Data returned: 28.7

Data request: Given CC(C)(C)c1cc(CCC(=O)NCC2CCN(Cc3ccccc3)CC2)cc(C(C)(C)C)c1O , state its recorded inhibition.
Data returned: 14.6

Data request: Given CC(C)(C)c1cc(/C=C/C(=O)NCCC2CCN(Cc3ccc(F)cc3)CC2)cc(C(C)(C)C)c1O , state its recorded inhibition.
Data returned: 40.2

Data request: Given CC(C)(C)c1cc(C(=O)NCCC2CCN(Cc3ccccc3)CC2)cc(C(C)(C)C)c1O , state its recorded inhibition.
Data returned: 49.7

Data request: Given CC(C)(C)c1cc(/C=C/C(=O)NCCC2CCN(Cc3cccc([N+](=O)[O-])c3)CC2)cc(C(C)(C)C)c1O , state its recorded inhibition.
Data returned: 42.6
